System: S. aureus K46N
Type: cell-based, Staphylococcus aureus
Settings: clinical strain, broth microdilution, 0.5 × 10^5 CFU/mL, 18 h, 37 °C, at least triplicate
Where no end group is shown, it is not given here.
Readout Kind: MIC (µg/mL)
Supply the numeric figure in µg/mL, leaving out any unit text.

Examples from the recorded data:
| Substance | MIC, µg/mL |
| --- | --- |
| GLFDVIKKVASVIGGL-NH2 [Citropin 1.1 AcO^−] | 16 |
| KWKLFKKIGAVLKVL-NH2 [CAMEL TFA^−] | 4 |
| FLPLIGRVLSGIL-NH2 [Temporin A Cl^−] | 8 |
| GLFDVIKKVASVIGGL-NH2 [Citropin 1.1 Cl^−] | 16 |
| GLFDVIKKVASVIGGL-NH2 [Citropin 1.1 TFA^−] | 16 |

// query Form field: reported MIC of KWKLFKKIGAVLKVL-NH2 [CAMEL Cl^−]
// result 4

// query Could you do the same for KWKLFKKIGAVLKVL-NH2 [CAMEL AcO^−] , please?
// result 4

====

Test system: S. aureus ATCC 12598
Type: cell-based, Staphylococcus aureus
Conditions: ATCC 12598, reference strain; broth microdilution, 0.5 × 10^5 CFU/mL, 18 h, 37 °C, at least triplicate
Where no end group is shown, it is not given here.
Define the label as label 1 when MIC is strictly less than 8 µg/mL and as label 0 in all remaining cases.

// query A record lists KWKLFKKIGAVLKVL-NH2 [CAMEL AcO^−] . Is its MIC below 8 µg/mL?
// result label 1

// query Another: KWKLFKKIGAVLKVL-NH2 [CAMEL TFA^−]
// result label 1

// query Next: FLPLIGRVLSGIL-NH2 [Temporin A Cl^−]
// result label 1

// query What about KWKLFKKIGAVLKVL-NH2 [CAMEL Cl^−] ?
// result label 1

// query # repeat for GLFDVIKKVASVIGGL-NH2 [Citropin 1.1 TFA^−]
// result label 0

====

Test system: S. aureus 039N
Format: cell-based, Staphylococcus aureus
Conditions: clinical strain, broth microdilution, 0.5 × 10^5 CFU/mL, 18 h, 37 °C, at least triplicate
Where no end group is shown, it is not given here.
Readout Kind: MIC (µg/mL)
Report the figure in µg/mL without appending any unit label.

For orientation, consider the following solved cases.
| Substance | Units Symbol | MIC |
| --- | --- | --- |
| FLPLIGRVLSGIL-NH2 [Temporin A Cl^−] | µg/mL | 4 |
| GLFDVIKKVASVIGGL-NH2 [Citropin 1.1 AcO^−] | µg/mL | 8 |
| GLFDVIKKVASVIGGL-NH2 [Citropin 1.1 TFA^−] | µg/mL | 16 |
| KWKLFKKIGAVLKVL-NH2 [CAMEL AcO^−] | µg/mL | 4 |
| GLFDVIKKVASVIGGL-NH2 [Citropin 1.1 Cl^−] | µg/mL | 16 |
| KWKLFKKIGAVLKVL-NH2 [CAMEL TFA^−] | µg/mL | 4 |

In the following, a different substance is considered.
// query For the substance KWKLFKKIGAVLKVL-NH2 [CAMEL Cl^−] , what MIC is on record?
// result 4

====

Catalogue of substances with associated MIC
Tested on: S. aureus 024N (MRSA)
Type: cell-based, Staphylococcus aureus
Conditions: clinical strain, broth microdilution, 0.5 × 10^5 CFU/mL, 18 h, 37 °C, at least triplicate
Where no end group is shown, it is not given here.
Return type: number; implicit unit µg/mL.

| Substance | Quantitative Readout |
| --- | --- |
| GLFDVIKKVASVIGGL-NH2 [Citropin 1.1 TFA^−] | 2 |
| GLFDVIKKVASVIGGL-NH2 [Citropin 1.1 Cl^−] | 2 |
| FLPLIGRVLSGIL-NH2 [Temporin A Cl^−] | 4 |

Shift focus to the following entry.
// query Given the entry GLFDVIKKVASVIGGL-NH2 [Citropin 1.1 AcO^−] , report its measured MIC.
// result 2
